assay: Cell viability; assay type: cell-based; details: human
readout: viability at 24 h, 250 μM

Q: I would be grateful if you could share the reported viability at 24 h, 250 μM for O=C=Nc1cc(Cl)cc(Cl)c1 [DPI, 3,5-dichlorophenyl isocyanate] .
A: ≥ 50%

---

test: Cell viability; format: cell-based; details: human
readout: CC50 at 24 h

Q: I would be grateful if you could share the reported CC50 at 24 h for O=C=Nc1cc(Cl)cc(Cl)c1 [DPI, 3,5-dichlorophenyl isocyanate] .
A: > 250 µM

---

assay: Cell viability; type: cell-based; settings: human
readout: viability at 24 h, 250 μM

Q: I would be grateful if you could share the reported viability at 24 h, 250 μM for O=C=Nc1cc(Cl)cc(Cl)c1 [DPI, 3,5-dichlorophenyl isocyanate] .
A: ≥ 50%

---

test: Cell viability; format: cell-based; conditions: human, HepG2-CYP3A4 transfected cells
readout: CC50 at 24 h (µM)
Dear colleague, please return just the value in µM, with no unit written.

molecule_smiles	unit_abbreviation	CC50 at 24 h
O=C(O)CSC(=O)Nc1cc(Cl)cc(Cl)c1	µM	67.3

Q: I would be grateful if you could share the reported CC50 at 24 h for `O=C1CSC(=O)N1c1cc(Cl)cc(Cl)c1` .
A: 160

---

experiment: Cell viability; type: cell-based; conditions: human, % Cell Viability
readout: viability (%)
Dear colleague, please return just the value in %, with no unit written.

Q: I would be grateful if you could share the reported viability for CC(=O)N1CCN(c2ccc(OCC3COC(Cn4ccnc4)(c4ccc(Cl)cc4Cl)O3)cc2)CC1 (stereo not shown) [KCZ, ketoconazole, reference compound] .
A: 106

---

test: Cell viability; assay type: cell-based; conditions: human
readout: CC50 at 24 h (µM)
Dear colleague, please return just the value in µM, with no unit written.

molecule	CC50 at 24 h [µM]
O=C1CSC(=O)N1c1cc(Cl)cc(Cl)c1 [DCPT]	233

Next item in the queue.
Q: I would be grateful if you could share the reported CC50 at 24 h for O=C(O)CSC(=O)Nc1cc(Cl)cc(Cl)c1 [DCTA] .
A: 65.3

---

target: CYP3A4 (Homo sapiens); test: in vitro
Sequence (P08684 whole entry): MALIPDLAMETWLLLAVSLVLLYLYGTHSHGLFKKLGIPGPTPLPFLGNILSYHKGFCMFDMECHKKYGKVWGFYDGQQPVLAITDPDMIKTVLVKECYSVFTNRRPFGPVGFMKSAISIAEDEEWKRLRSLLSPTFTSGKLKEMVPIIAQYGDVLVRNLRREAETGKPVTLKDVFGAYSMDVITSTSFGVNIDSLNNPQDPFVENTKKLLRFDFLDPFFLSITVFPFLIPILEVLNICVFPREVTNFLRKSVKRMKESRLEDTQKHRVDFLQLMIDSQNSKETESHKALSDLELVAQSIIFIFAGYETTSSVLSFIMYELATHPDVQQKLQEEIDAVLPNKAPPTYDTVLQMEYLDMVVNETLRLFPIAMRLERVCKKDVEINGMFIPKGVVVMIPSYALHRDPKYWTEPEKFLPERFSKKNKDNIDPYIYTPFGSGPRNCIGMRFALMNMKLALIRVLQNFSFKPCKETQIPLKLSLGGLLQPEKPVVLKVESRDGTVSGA
readout: Km (µM)
Dear colleague, please return just the value in µM, with no unit written.

Q: I would be grateful if you could share the reported Km for `C[C@]12CC[C@H]3[C@@H](CCC4=CC(=O)CC[C@@]43C)[C@@H]1CC[C@@H]2O` .
A: 81.1

---

Listing: CC50 at 24 h of selected compounds
assay: Cell viability; assay type: cell-based; conditions: human

compound	CC50 at 24 h
O=C=Nc1cc(Cl)cc(Cl)c1 [DPI, 3,5-dichlorophenyl isocyanate]	> 250 µM
O=C1CSCN1c1cc(Cl)cc(Cl)c1	> 250 µM

Q: I would be grateful if you could share the reported CC50 at 24 h for CC1SC(=O)N(c2cc(Cl)cc(Cl)c2)C1=O (stereo not drawn) .
A: > 250 µM
